Species on record: Homo sapiens
assayOverview: Selectivity for human ACC2 over human ACC1
// reported Ratio IC50 per item

COC(=O)COc1ccc(Oc2ncc(C#CC(C)NC(C)=O)s2)cc1 (stereo not given); > 19
CNC(=O)COc1ccc(Oc2ncc(C#CC(C)NC(C)=O)s2)cc1 (stereo not given); > 1
CC(=O)NC(C)C#Cc1cnc(Oc2ccc(OC3CCOC3)cc2)s1 (stereo not given); > 82

So what does the record say about Ratio IC50 for CC(=O)NC(C)C#Cc1cnc(Oc2ccc(Oc3ccccn3)cc2)s1 (stereo not given) ?
37

May I ask what Ratio IC50 has been recorded for CC(=O)NC(C)C#Cc1cnc(Oc2ccccc2)s1 (stereo not given) ?
> 15

// Ratio IC50 lookup, key: COc1ccc(Oc2ncc(C#CC(C)NC(C)=O)s2)cc1 (stereo not given)
> 64

Dear colleague, I am looking for the recorded Ratio IC50 of the following molecule: COc1cccc(Oc2ncc(C#CC(C)NC(C)=O)s2)c1 (stereo not given)
> 35

For the molecule shown here, CCOc1ccccc1Oc1ncc(C#CC(C)NC(C)=O)s1 (stereo not given) , give the reported Ratio IC50.
> 23

Can you share its Ratio IC50? I mean this molecule: CC(=O)NC(C)C#Cc1cnc(Oc2ccc(O)cc2)s1 (stereo not given)
> 18

What does the record list as Ratio IC50 for CCOc1ccc(Oc2ncc(C#CC(C)NC(C)=O)s2)cc1 (stereo not given) ?
> 811
